Numbers sourced from patent US10981860B2.

Experiment: Mouse pharmacokinetic study (intravenous and oral)
Assay type: in vivo
Settings: oral administration 10 mpk
Recorded Time to peak concentration values for a group of compounds are listed next.
Response body: numeric value in h, unit text excluded.

Return reported Time to peak concentration; argument: C[C@H](NC(=O)C(=O)Nc1ccccc1C(C)(C)C)C(=O)N[C@@H](CC(=O)O)C(=O)COc1c(F)c(F)cc(F)c1F [IDN-6556, reference compound]
0.25

// query: O=C(O)C[C@H](NC(=O)C1CCN(C(=O)OC2CCCC2)CC1)C(=O)COc1c(F)c(F)cc(F)c1F [Example 69]
0.5

// query: CC(C)(C)c1ccccc1NC(=O)C(=O)N1CCC(C(=O)N[C@@H](CC(=O)O)C(=O)COc2c(F)c(F)cc(F)c2F)CC1 [Example 7]
0.833

// query: O=C(O)C[C@H](NC(=O)C1CCN(C(=O)C2CCCC2)CC1)C(=O)COc1c(F)c(F)cc(F)c1F [Example 49]
1
